# Protocol text: Crystal size distribution (CSD) by laser diffraction (Mastersizer 2000, Fraunhofer model)
# Type: physicochemical
# Recorded conditions: Entry 1; antisolvent flow 45 l/h; 3-ketodesogestrel flow 0.7 l/h; Microdyn membrane pore size 1 μm

{"columns": ["Compound structure", "Measurement unit", "d50"],
 "data": [
  ["C#C[C@]1(O)CC[C@H]2[C@@H]3CCC4=CC(=O)CC[C@@H]4[C@H]3C(=C)C[C@@]21CC", "µm", 11]
]}

###

# Protocol text: Crystal size distribution (CSD) by laser diffraction (Mastersizer 2000, Fraunhofer model)
# Format: physicochemical
# Recorded conditions: Entry 6; antisolvent flow 45 l/h; 3-ketodesogestrel flow 10 l/h; Microdyn membrane pore size 1 μm

{"columns": ["Compound structure", "d10 / µm"],
 "data": [
  ["C#C[C@]1(O)CC[C@H]2[C@@H]3CCC4=CC(=O)CC[C@@H]4[C@H]3C(=C)C[C@@]21CC", 2]
]}

###

# Protocol text: Crystal size distribution (CSD) by laser diffraction (Mastersizer 2000, Fraunhofer model)
# Format: physicochemical
# Recorded conditions: Entry 3; antisolvent flow 45 l/h; 3-ketodesogestrel flow 6.2 l/h; Microdyn membrane pore size 1 μm
Measure: d10 (µm)

{"columns": ["Molecule", "Measure", "Reported value"],
 "data": [
  ["C#C[C@]1(O)CC[C@H]2[C@@H]3CCC4=CC(=O)CC[C@@H]4[C@H]3C(=C)C[C@@]21CC [3-ketodesogestrel]", "d10", 5]
]}

###

# Protocol text: Crystal size distribution (CSD) by laser diffraction (Mastersizer 2000, Fraunhofer model)
# Type: physicochemical
# Recorded conditions: Entry 6; antisolvent flow 45 l/h; 3-ketodesogestrel flow 10 l/h; Microdyn membrane pore size 1 μm

{"columns": ["Compound", "d50"],
 "data": [
  ["C#C[C@]1(O)CC[C@H]2[C@@H]3CCC4=CC(=O)CC[C@@H]4[C@H]3C(=C)C[C@@]21CC [3-ketodesogestrel]", "8 µm"]
]}

###

# Protocol text: Crystal size distribution (CSD) by laser diffraction (Mastersizer 2000, Fraunhofer model)
# Assay type: physicochemical
# Recorded conditions: Entry 2; antisolvent flow 45 l/h; 3-ketodesogestrel flow 0.4 l/h; Microdyn membrane pore size 1 μm

{"columns": ["Compound", "Measurement unit", "d90"],
 "data": [
  ["C#C[C@]1(O)CC[C@H]2[C@@H]3CCC4=CC(=O)CC[C@@H]4[C@H]3C(=C)C[C@@]21CC [3-ketodesogestrel]", "µm", 20]
]}

###

# Protocol text: Crystal size distribution (CSD) by laser diffraction (Mastersizer 2000, Fraunhofer model)
# Assay type: physicochemical
# Recorded conditions: Entry 1; antisolvent flow 45 l/h; 3-ketodesogestrel flow 0.7 l/h; Microdyn membrane pore size 1 μm

{"columns": ["Compound structure", "d10"],
 "data": [
  ["C#C[C@]1(O)CC[C@H]2[C@@H]3CCC4=CC(=O)CC[C@@H]4[C@H]3C(=C)C[C@@]21CC", "3 µm"]
]}

###

# Protocol text: Crystal size distribution (CSD) by laser diffraction (Mastersizer 2000, Fraunhofer model)
# Type: physicochemical
# Recorded conditions: Entry 1; antisolvent flow 45 l/h; 3-ketodesogestrel flow 0.7 l/h; Microdyn membrane pore size 1 μm

{"columns": ["Compound structure", "Measurement unit", "d90"],
 "data": [
  ["C#C[C@]1(O)CC[C@H]2[C@@H]3CCC4=CC(=O)CC[C@@H]4[C@H]3C(=C)C[C@@]21CC", "µm", 21]
]}
